experimental.protocol: cells
study.conditions: Homo sapiens, DLD-1, 240 h, read-out: Cell viability assay IC50 (nM), CTG assay, CellTiter Glo, read on Day 10; cell line not given
readout.name: IC50 (nM)
Dear colleague, please return just the value in nM, with no unit written.

[
  {
    "compound": "COc1cnc(Cl)cc1-c1cc(C)ncc1C(=O)Nc1nc2c(C(N)=O)cc(-c3c(C)cnn3C)cc2s1 [Example 165]",
    "unit.of.measure": "nM",
    "recorded.value": 446
  },
  {
    "compound": "COc1cnc(Cl)cc1-c1cc(C)ncc1C(=O)Nc1nc2ccc(C3=CCC(O)CC3)cc2s1 (centres unmarked) [Example 15]",
    "unit.of.measure": "nM",
    "recorded.value": 14.7
  },
  {
    "compound": "COc1cnc(Cl)cc1-c1cc(C)ncc1C(=O)Nc1nc2ncc(C3=CCC(NC(C)=O)CC3)cc2s1 (centres unmarked) [Example 23]",
    "unit.of.measure": "nM",
    "recorded.value": 15.3
  },
  {
    "compound": "COc1cnc(Cl)cc1-c1cc(C)ncc1C(=O)Nc1nc2ccc(C3CCN(C)CC3)nc2s1 [Example 36]",
    "unit.of.measure": "nM",
    "recorded.value": 584
  }
]

Lab note: next compound to report on.
According to the records, this compound COc1cnc(Cl)cc1-c1cc(C)ncc1C(=O)Nc1nc2cnc(C3=CCC4(CC3)CN(C(C)=O)C4)cc2s1 [Example 185] displays IC50 of 35.9
